# Tested on: Trichophyton mentagrophytes
# MEASUREMENT_PROTOCOL: Antifungal activity against Trichophyton mentagrophytes 445 after 120 hrs by microdilution broth assay
# Format: functional
# CONDITION_INFO: Trichophyton mentagrophytes, 445, 120 h
MEASURED_METRIC: MIC50 (µM)

[
  {
    "CHEMICAL_SMILES": "O=C(CN1C(=O)CSC1=S)Oc1ccc([N+](=O)[O-])cc1",
    "QUALIFIER_SIGN": "=",
    "MEASURED": 250
  },
  {
    "CHEMICAL_SMILES": "O=C(O)CN1C(=O)/C(=C/c2ccc(O)cc2)SC1=S",
    "QUALIFIER_SIGN": ">",
    "MEASURED": 500
  },
  {
    "CHEMICAL_SMILES": "CC(=O)Oc1ccccc1/C=C1\\SC(=S)N(CC(=O)O)C1=O",
    "QUALIFIER_SIGN": "=",
    "MEASURED": 500
  },
  {
    "CHEMICAL_SMILES": "O=C(CN1C(=O)CSC1=S)Nc1ccccc1",
    "QUALIFIER_SIGN": ">",
    "MEASURED": 500
  },
  {
    "CHEMICAL_SMILES": "O=C(O)CN1C(=O)/C(=C/c2ccccn2)SC1=S",
    "QUALIFIER_SIGN": "≥",
    "MEASURED": 0.98
  },
  {
    "CHEMICAL_SMILES": "O=C(CN1C(=O)CSC1=S)Oc1ccc(C(F)(F)F)cc1",
    "QUALIFIER_SIGN": "=",
    "MEASURED": 250
  },
  {
    "CHEMICAL_SMILES": "OC(Cn1cncn1)(Cn1cncn1)c1ccc(F)cc1F",
    "QUALIFIER_SIGN": "=",
    "MEASURED": 125
  },
  {
    "CHEMICAL_SMILES": "O=C(O)CN1C(=O)/C(=C/c2ccccc2O)SC1=S",
    "QUALIFIER_SIGN": "=",
    "MEASURED": 250
  },
  {
    "CHEMICAL_SMILES": "O=C(CN1C(=O)CSC1=S)Oc1ccc(Cl)cc1",
    "QUALIFIER_SIGN": "=",
    "MEASURED": 500
  }
]

The values you see were collected from ChEMBL document CHEMBL3992547.
